- system-under-test: EGFR (Homo sapiens)
- Construct: purchased #40321
- Sequence (P00533 25-1210): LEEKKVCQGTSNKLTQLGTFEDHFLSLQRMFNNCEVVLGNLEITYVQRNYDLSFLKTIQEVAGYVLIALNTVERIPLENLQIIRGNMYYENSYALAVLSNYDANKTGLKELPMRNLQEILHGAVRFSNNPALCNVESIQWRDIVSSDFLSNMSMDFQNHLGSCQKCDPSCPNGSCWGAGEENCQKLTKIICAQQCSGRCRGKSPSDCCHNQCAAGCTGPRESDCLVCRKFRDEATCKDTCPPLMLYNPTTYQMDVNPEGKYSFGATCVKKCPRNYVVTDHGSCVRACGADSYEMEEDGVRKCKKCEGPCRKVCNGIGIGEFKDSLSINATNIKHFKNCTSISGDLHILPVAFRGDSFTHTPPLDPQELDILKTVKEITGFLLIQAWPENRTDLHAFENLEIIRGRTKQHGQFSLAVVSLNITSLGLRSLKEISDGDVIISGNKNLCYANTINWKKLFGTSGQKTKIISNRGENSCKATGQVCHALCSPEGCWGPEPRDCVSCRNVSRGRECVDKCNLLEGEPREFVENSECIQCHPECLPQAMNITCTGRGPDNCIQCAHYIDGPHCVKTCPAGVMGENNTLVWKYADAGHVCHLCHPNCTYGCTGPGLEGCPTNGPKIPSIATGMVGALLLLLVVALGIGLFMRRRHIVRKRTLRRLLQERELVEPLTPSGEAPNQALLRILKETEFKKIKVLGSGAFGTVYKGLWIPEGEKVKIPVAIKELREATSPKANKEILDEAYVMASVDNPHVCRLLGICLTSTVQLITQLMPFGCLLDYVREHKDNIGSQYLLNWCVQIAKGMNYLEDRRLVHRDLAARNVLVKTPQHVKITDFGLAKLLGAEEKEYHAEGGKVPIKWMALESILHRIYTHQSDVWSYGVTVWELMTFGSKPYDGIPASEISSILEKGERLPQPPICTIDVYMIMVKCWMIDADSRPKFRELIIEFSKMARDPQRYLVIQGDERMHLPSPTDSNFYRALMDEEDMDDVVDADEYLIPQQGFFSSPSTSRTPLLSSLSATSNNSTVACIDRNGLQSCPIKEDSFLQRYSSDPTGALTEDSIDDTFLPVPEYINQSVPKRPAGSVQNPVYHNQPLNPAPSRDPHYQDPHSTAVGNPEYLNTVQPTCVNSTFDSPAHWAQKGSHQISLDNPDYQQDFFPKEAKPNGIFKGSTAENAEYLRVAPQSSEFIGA
- experiment-summary: EGFR kinase assay kit, Kinase-Glo MAX luminescence
- Format: biochemical
- assay-setup: 10 µM; one experimental data
readout-label: inhibition at 10 µM (%)

line-notation	inhibition at 10 µM [%]
CCOC(=O)CSc1nc2ccc(F)cc2c(=O)n1Cc1ccccc1	91.2
CCOC(=O)CSc1nc2c(C)cc(Cl)cc2c(=O)n1Cc1ccccc1	90.2
COc1cc2nc(SCC(=O)NN)n(Cc3ccccc3)c(=O)c2cc1OC	92.4
Cc1cc(Cl)cc2c(=O)n(Cc3ccccc3)c(SCC(=O)NN)nc12	89.9

* * *

- system-under-test: HER2 (Homo sapiens)
- Construct: purchased #40721
- experiment-summary: HER2 kinase assay kit, Kinase-Glo MAX luminescence
- Assay type: biochemical
- assay-setup: 1 µM; one experimental data
readout-label: inhibition at 1 µM (%)

line-notation	numeric-readout
NNC(=O)CSc1nc2ccc(F)cc2c(=O)n1Cc1ccccc1	83.8

I: CCOC(=O)CSc1nc2c(C)cc(Cl)cc2c(=O)n1Cc1ccccc1
II: CCOC(=O)CSc1nc2c(F)cc(F)cc2c(=O)n1Cc1ccccc1
Which entry has a larger number for inhibition at 1 µM, I or II ? Output the label that corresponds to your choice.
I

* * *

- system-under-test: HER2 (Homo sapiens, UniProt P04626)
- Construct: purchased #40721
- Sequence (P04626 23-1255): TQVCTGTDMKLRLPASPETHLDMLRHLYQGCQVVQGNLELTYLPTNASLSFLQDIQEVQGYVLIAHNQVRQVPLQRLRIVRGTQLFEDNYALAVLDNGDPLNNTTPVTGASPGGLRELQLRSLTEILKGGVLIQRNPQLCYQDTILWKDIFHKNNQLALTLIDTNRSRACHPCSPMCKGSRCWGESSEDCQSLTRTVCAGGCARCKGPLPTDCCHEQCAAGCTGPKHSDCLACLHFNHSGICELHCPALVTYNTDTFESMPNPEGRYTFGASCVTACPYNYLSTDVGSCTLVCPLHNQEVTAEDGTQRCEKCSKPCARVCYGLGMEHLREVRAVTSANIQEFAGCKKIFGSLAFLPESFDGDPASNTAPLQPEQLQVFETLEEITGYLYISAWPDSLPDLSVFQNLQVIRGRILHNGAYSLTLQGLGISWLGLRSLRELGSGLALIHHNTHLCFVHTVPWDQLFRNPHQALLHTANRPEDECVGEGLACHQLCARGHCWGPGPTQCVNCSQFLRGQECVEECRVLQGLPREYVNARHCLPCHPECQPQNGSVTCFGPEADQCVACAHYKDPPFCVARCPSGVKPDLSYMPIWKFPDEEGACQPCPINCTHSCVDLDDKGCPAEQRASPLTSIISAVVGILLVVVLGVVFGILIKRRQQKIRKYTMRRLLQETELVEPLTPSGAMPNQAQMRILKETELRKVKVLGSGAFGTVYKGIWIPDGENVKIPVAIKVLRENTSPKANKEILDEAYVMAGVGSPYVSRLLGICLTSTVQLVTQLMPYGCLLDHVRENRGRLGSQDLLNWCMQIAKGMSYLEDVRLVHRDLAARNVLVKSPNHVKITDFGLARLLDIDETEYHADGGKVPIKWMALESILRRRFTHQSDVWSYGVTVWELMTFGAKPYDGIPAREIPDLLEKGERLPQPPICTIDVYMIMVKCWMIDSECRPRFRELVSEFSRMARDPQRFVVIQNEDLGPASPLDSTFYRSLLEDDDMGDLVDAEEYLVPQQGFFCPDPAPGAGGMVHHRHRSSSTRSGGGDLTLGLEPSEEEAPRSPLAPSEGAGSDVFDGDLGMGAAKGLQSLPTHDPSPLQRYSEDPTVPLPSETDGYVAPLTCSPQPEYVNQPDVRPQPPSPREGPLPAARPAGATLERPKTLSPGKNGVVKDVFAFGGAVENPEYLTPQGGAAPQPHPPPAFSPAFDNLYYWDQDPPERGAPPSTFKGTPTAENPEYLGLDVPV
- experiment-summary: HER2 kinase assay kit, Kinase-Glo MAX luminescence
- Format: biochemical
- assay-setup: 0.1 µM; one experimental data
readout-label: inhibition at 0.1 µM (%)

Some compounds with known inhibition at 0.1 µM results, for comparison:
compound	units-of-measure	inhibition at 0.1 µM
NNC(=O)CSc1nc2ccc(F)cc2c(=O)n1Cc1ccccc1	%	23.4
CCOC(=O)CSc1nc2c(C)cc(Cl)cc2c(=O)n1Cc1ccccc1	%	47
CCOC(=O)CSc1nc2ccc(Cl)cc2c(=O)n1Cc1ccccc1	%	38.9

A: NNC(=O)CSc1nc2c(F)cc(F)cc2c(=O)n1Cc1ccccc1
B: CS(=O)(=O)CCNCc1ccc(-c2ccc3ncnc(Nc4ccc(OCc5cccc(F)c5)c(Cl)c4)c3c2)o1 [lapatinib, reference compound]
Which entry has a larger number for inhibition at 0.1 µM, A or B ? Output the label that corresponds to your choice.
A
(A: 44.4%, B: 23.2%)
